# Target under test: GST-Nv-NF-kB (Ser allele) (Nematostella vectensis, UniProt A7UNT2 2-411)
# Sequence: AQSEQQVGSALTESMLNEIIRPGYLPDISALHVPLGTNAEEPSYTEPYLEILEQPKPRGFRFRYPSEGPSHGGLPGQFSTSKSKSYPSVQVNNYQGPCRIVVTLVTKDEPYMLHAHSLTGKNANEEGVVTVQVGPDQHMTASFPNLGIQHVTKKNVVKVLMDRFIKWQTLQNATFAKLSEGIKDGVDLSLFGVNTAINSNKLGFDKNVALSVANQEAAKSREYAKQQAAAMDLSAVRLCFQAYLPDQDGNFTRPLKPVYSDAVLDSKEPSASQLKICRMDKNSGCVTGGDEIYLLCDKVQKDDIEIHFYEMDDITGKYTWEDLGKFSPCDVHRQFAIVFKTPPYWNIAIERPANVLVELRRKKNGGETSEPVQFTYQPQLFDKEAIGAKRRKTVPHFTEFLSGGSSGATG
# Assay protocol: protein-binding microarray (PBM); PBM: ~300 nM protein, 6 mM HEPES pH 7.8, 80 mM KCl, 0.5 mM EDTA, 0.5 mM EGTA, 6% glycerol, 35 ng/ul poly-dIdC, 1% milk, 1 h, room temperature; high values mean tight binding
# Reported conditions: dsDNA, one strand shown
Metric name: binding signal (z-score)
Your answer is read as z-score, so omit the unit and give the number.

Return reported binding signal; argument: CCGATTAACATCATAATGGGAAATGATGTTAATCGGGTCTTGATTCGCTTGACGCTGCTG
2.35

Return reported binding signal; argument: CCGATTAACATCAAAAAATACCCTGATGTTAATCGGGTCTTGATTCGCTTGACGCTGCTG
8.7

Return reported binding signal; argument: CCGATTAACATCAGGGGGCTATATGATGTTAATCGGGTCTTGATTCGCTTGACGCTGCTG
2.2

Return reported binding signal; argument: CCGATTAACATCAAATTCCCGGGTGATGTTAATCGGGTCTTGATTCGCTTGACGCTGCTG
3.88

Return reported binding signal; argument: CCGATTAACATCAAAACATTCCCTGATGTTAATCGGGTCTTGATTCGCTTGACGCTGCTG
4.94

----------
# Target under test: GST-Aq-NF-kB (Amphimedon queenslandica, UniProt A9Y5G7 2-389)
# Sequence: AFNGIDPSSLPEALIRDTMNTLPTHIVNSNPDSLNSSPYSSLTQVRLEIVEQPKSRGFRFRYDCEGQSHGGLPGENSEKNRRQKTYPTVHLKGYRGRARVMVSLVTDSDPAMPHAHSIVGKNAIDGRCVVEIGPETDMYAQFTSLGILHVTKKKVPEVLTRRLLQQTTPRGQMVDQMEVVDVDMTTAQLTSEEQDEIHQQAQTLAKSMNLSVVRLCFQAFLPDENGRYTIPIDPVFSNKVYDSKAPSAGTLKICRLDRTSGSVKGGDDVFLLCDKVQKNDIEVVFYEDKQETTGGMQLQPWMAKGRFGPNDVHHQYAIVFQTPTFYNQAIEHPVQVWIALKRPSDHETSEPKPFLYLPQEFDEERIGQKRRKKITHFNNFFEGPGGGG
# Assay protocol: protein-binding microarray (PBM); PBM: ~300 nM protein, 6 mM HEPES pH 7.8, 80 mM KCl, 0.5 mM EDTA, 0.5 mM EGTA, 6% glycerol, 35 ng/ul poly-dIdC, 1% milk, 1 h, room temperature; Ap Aiptasia and Nv Nematostella (sea anemones) / Co Capsaspora / Aq Amphimedon (sponge) / Dm Drosophila / Hu human; RHD is the Rel homology domain; high values mean tight binding
# Reported conditions: dsDNA, one strand shown
Lab note: cut-off is 5 z-score. Strictly less in binding signal is criterion met. Exactly 5 z-score or more is criterion not met.

Would you kindly verify if binding signal of CCGATTAACATCACAGAAACCCCTGATGTTAATCGGGTCTTGATTCGCTTGACGCTGCTG is strictly less than 5 z-score?
criterion met

Would you kindly verify if binding signal of CCGATTAACATCAGGGAAAAATATGATGTTAATCGGGTCTTGATTCGCTTGACGCTGCTG is strictly less than 5 z-score?
criterion not met

Would you kindly verify if binding signal of CCGATTAACATCACCCCAACCCCTGATGTTAATCGGGTCTTGATTCGCTTGACGCTGCTG is strictly less than 5 z-score?
criterion met

Would you kindly verify if binding signal of CCGATTAACATCACCCCCTCCCCTGATGTTAATCGGGTCTTGATTCGCTTGACGCTGCTG is strictly less than 5 z-score?
criterion met

Would you kindly verify if binding signal of CCGATTAACATCACGGAAAAACCTGATGTTAATCGGGTCTTGATTCGCTTGACGCTGCTG is strictly less than 5 z-score?
criterion met

Would you kindly verify if binding signal of CCGATTAACATCAGGGATCCCCCTGATGTTAATCGGGTCTTGATTCGCTTGACGCTGCTG is strictly less than 5 z-score?
criterion not met

Would you kindly verify if binding signal of CCGATTAACATCACGGACACCCCTGATGTTAATCGGGTCTTGATTCGCTTGACGCTGCTG is strictly less than 5 z-score?
criterion met

Would you kindly verify if binding signal of CCGATTAACATCAGGATTGTCCCTGATGTTAATCGGGTCTTGATTCGCTTGACGCTGCTG is strictly less than 5 z-score?
criterion not met

Would you kindly verify if binding signal of CCGATTAACATCAGGGGTGGGGATGATGTTAATCGGGTCTTGATTCGCTTGACGCTGCTG is strictly less than 5 z-score?
criterion met

Would you kindly verify if binding signal of CCGATTAACATCAGTCCCTAAGCTGATGTTAATCGGGTCTTGATTCGCTTGACGCTGCTG is strictly less than 5 z-score?
criterion met

Would you kindly verify if binding signal of CCGATTAACATCAAATTTTCCCATGATGTTAATCGGGTCTTGATTCGCTTGACGCTGCTG is strictly less than 5 z-score?
criterion met

Would you kindly verify if binding signal of CCGATTAACATCAAAATTTCCCTTGATGTTAATCGGGTCTTGATTCGCTTGACGCTGCTG is strictly less than 5 z-score?
criterion not met

Would you kindly verify if binding signal of CCGATTAACATCAAGAACCCCCGTGATGTTAATCGGGTCTTGATTCGCTTGACGCTGCTG is strictly less than 5 z-score?
criterion not met

Would you kindly verify if binding signal of CCGATTAACATCAAAATTCCACCTGATGTTAATCGGGTCTTGATTCGCTTGACGCTGCTG is strictly less than 5 z-score?
criterion met

Would you kindly verify if binding signal of CCGATTAACATCAGGGGGGGGTATGATGTTAATCGGGTCTTGATTCGCTTGACGCTGCTG is strictly less than 5 z-score?
criterion met

Would you kindly verify if binding signal of CCGATTAACATCAAGTATTTCCCTGATGTTAATCGGGTCTTGATTCGCTTGACGCTGCTG is strictly less than 5 z-score?
criterion not met

Would you kindly verify if binding signal of CCGATTAACATCAGGGAAGCCCCTGATGTTAATCGGGTCTTGATTCGCTTGACGCTGCTG is strictly less than 5 z-score?
criterion not met
